ASSAYED_SYSTEM: NAMPT (Homo sapiens, UniProt P43490)
Construct: His tag; host or cells: E. coli
Sequence (P43490 whole entry): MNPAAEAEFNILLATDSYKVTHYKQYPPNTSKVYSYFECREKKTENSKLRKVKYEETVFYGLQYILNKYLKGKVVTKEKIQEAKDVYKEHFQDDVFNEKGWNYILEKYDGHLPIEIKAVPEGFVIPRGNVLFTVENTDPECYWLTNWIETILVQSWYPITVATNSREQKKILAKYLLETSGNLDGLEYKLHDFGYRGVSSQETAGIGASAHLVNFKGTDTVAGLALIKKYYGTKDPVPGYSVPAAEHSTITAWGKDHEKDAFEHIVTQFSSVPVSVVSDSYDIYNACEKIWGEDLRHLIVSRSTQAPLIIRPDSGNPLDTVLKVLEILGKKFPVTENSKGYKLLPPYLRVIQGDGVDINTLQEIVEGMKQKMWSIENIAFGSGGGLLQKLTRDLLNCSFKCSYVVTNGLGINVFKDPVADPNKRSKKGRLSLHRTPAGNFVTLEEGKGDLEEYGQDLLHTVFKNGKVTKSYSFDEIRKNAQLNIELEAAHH
ASSAY_SUMMARY: Biochemical inhibition assay: NAMPT enzymatic reaction, NMN quantified by mass spectrometry
CONDITION_SET: NAMPT enzymatic reaction; read-out: Biochem IC50
pIC50: −log10 of the molar value.
Outcome label depends on pIC50 relative to 8: at/above gives class 1, below gives class 0.

>>> qualitative_label("Cc1ccc(C)c(S(=O)(=O)c2ccc(CNC(=O)c3ccc4nccn4c3)cc2)c1")
"class 0"
>>> qualitative_label("CCCOc1ccc(S(=O)(=O)c2ccc(CNC(=O)c3cc4cnccc4[nH]3)cc2)c(C)c1")
"class 0"
>>> qualitative_label("Cc1ccc(S(=O)(=O)c2ccc(CNC(=O)c3ccc4nccn4c3)cc2)c(C)c1")
"class 0"
>>> qualitative_label("COc1ccc(C(C)(C)C)cc1S(=O)(=O)c1ccc(CNC(=O)c2cc3cnccc3[nH]2)cc1")
"class 0"
>>> qualitative_label("CCCCOc1ccc(Cl)cc1S(=O)(=O)c1ccc(CNC(=O)c2cc3ccncc3o2)cc1")
"class 0"
>>> qualitative_label("Cc1ccc(S(=O)(=O)c2ccc(CNC(=O)c3cnc4nccn4c3)cc2)cc1C")
"class 1"
>>> qualitative_label("O=C(NCc1ccc(S(=O)(=O)c2ccccc2)cc1)c1ccc2cnccc2c1")
"class 0"
>>> qualitative_label("COc1cc(OC)cc(S(=O)(=O)c2ccc(CNC(=O)c3cc4cnccc4[nH]3)cc2)c1")
"class 1"
>>> qualitative_label("O=C(NCc1ccc(S(=O)(=O)c2c(Cl)cccc2Cl)cc1)c1ccc2nccn2c1")
"class 1"
>>> qualitative_label("Cc1ccc(S(=O)(=O)c2ccc(CNC(=O)c3cc4ccncc4s3)cc2)c(Cl)c1")
"class 0"
>>> qualitative_label("COc1cc(Cl)cc(S(=O)(=O)c2ccc(CNC(=O)c3cnc4nccn4c3)cc2)c1")
"class 1"
>>> qualitative_label("O=C(NCc1ccc(S(=O)(=O)c2ccc3ncccc3c2)cc1)c1cc2ccncc2s1")
"class 1"
>>> qualitative_label("CCOc1ccc(S(=O)(=O)c2ccc(CNC(=O)c3cc4cnccc4[nH]3)cc2)cc1F")
"class 0"
>>> qualitative_label("CCCOc1ccc(S(=O)(=O)c2ccc(CNC(=O)c3cc4ccncc4s3)cc2)cc1F")
"class 1"
